B1: LINE1-mini (parent)
chain: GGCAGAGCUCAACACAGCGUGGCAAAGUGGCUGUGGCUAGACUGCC

# Variants of: B1
# ASSAY: self-cleavage, relative activity (ratio to wild type); higher = more cleavage; in vitro, sequencing; the parent is a self-cleaving ribozyme
self-cleavage overview

G17A C37G: 0.05
U32C U43C: 0.05

So what does the record say about self-cleavage for A14C G21C ?
0.05

Cited source: the RNAGym collection of RNA variant scans (doi:10.7554/elife.90254)
